- ASSAY SYSTEM: dsRBD4 S208A Q212A Q215A (Homo sapiens, UniProt O95793-2 205-274, S208A;Q212A;Q215A)
- Sequence (O95793 286-355 S289A/Q293A/Q296A): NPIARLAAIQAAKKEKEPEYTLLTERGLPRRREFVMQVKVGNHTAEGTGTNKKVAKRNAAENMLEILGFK
- METHOD NOTES: fluorescence anisotropy
RECORDED ENDPOINT: pKd
Give only the number. pKd is defined as minus log10 of concentration in molar units.

### Prompt Which pKd value belongs to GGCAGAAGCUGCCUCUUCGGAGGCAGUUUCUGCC (structured_RNA) [top 2/3 ARF1 SBS (sARF1 SBS)] ?
### Response 6.41
